- TARGET OR TEST SYSTEM: AgBbc1
- METHOD: SPOT peptide array binding signal intensity (averaged, normalized) (arbitrary units (background-subtracted, floor 0; scale differs between SH3 domains)); higher = stronger binding of the SH3 domain to the peptide
PARAMETER MEASURED: SPOT peptide array binding signal intensity

{"BINDER": "IKKRNKIRLPSGSPE", "TEST VALUE": 23.8}
{"BINDER": "DRIRMFIRFPKFLLE", "TEST VALUE": 5}
{"BINDER": "LKQRFFLMFPKSIIW", "TEST VALUE": 6}
{"BINDER": "NILKRRPLKLEAPSK", "TEST VALUE": 0.25}
{"BINDER": "ATKSASPTLPTRRSR", "TEST VALUE": 899}
{"BINDER": "KRKRFNLLLPKPYLT", "TEST VALUE": 16.5}
{"BINDER": "RRRDFGAPANKRPRR", "TEST VALUE": 223}
